Data origin: patent US20260242735A1

systemTested: human CD33 P48A (human, UniProt P20138 18-364)
Sequence (P20138 18-364 P48A limits assumed): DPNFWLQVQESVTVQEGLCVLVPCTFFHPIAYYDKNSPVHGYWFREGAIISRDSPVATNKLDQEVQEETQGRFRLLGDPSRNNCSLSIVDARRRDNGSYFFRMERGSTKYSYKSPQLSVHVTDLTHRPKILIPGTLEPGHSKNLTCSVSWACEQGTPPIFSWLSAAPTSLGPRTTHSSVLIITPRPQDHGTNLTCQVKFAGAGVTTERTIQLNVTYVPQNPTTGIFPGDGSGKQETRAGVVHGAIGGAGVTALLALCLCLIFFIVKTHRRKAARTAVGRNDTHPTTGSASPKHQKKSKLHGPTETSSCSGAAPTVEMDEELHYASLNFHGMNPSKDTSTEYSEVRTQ
assayText: alanine scan, flow cytometry;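 also: HEK293-T cells transiently expressing single-residue alanine mutants of CD33 (alanine swapped to serine), antibody binding read by fluorescence in duplicate, background-subtracted, expressed relative to wild-type CD33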
# key: entry, value: Mean % WT Binding
Use % WT as the unit, but write only the number.

// field: Mean % WT Binding; key: Refmab #1 (antibody, V domains shown, Full-length format is human IgG1 (Absolute Antibody Ab00283-10.0); The alanine scan used IgG or Fab; also called hP67.6) VH: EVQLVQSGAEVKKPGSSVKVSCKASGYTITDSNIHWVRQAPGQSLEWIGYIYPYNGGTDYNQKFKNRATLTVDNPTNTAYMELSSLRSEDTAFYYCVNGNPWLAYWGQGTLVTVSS VL: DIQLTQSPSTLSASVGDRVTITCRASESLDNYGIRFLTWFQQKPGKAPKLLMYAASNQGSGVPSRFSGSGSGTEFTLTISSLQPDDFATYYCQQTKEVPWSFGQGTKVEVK ; value = 86.2

// field: Mean % WT Binding; key: Refmab #3 (antibody, V domains shown, Full-length format is human IgG1 Fc silent (PG-LALA); The alanine scan used IgG or Fab) VH: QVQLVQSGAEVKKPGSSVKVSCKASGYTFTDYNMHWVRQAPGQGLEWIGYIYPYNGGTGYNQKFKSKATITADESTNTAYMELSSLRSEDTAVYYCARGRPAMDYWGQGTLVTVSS VL: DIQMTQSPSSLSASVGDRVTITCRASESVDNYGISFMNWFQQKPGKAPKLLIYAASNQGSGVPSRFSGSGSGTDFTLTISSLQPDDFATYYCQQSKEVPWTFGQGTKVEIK ; value = 167

// field: Mean % WT Binding; key: Refmab #2 (antibody, V domains shown, Full-length format is human IgG1 Fc silent (PG-LALA); The alanine scan used IgG or Fab) VH: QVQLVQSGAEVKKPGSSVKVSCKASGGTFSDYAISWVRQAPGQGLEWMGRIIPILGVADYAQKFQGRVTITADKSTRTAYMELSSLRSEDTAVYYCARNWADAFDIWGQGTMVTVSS VL: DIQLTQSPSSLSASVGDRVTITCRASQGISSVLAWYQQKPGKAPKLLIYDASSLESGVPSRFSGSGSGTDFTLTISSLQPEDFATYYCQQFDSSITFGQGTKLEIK ; value = 109

In the following, a different binder is considered.
// field: Mean % WT Binding; key: Refmab #4 (antibody, V domains shown, Full-length format is human IgG1 Fc silent (PG-LALA); The alanine scan used IgG or Fab) VH: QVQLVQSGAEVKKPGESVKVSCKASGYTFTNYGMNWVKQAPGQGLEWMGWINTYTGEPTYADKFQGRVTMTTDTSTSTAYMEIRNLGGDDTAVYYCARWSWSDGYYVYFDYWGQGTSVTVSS VL: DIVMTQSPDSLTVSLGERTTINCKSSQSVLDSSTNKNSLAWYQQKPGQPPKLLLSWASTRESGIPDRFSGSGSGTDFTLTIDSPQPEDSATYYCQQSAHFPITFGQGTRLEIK ; value = 8.4
